Where do the numbers come from? From PubChem BioAssay.

Some molecules, each annotated with its measured inhibition of aggregation.
method notes: reduction of polyQ htt aggregates in cells – imaging, exon1htt(103Q)mCFP cells, high-content imaging, primary screen (AID 483);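 also: compound exposure lasted 3 days before fixation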
conditions: exon1htt(103Q)mCFP cell line, aggregate imaging, at 2 µM; hits give high values

{"columns": ["molecule", "inhibition of aggregation [%]"],
 "data": [
  ["CCOC(=O)Cc1csc(NC(=O)CSc2nnc(-c3ccncc3)n2Cc2ccco2)n1", 14.5],
  ["CC1=C(C)C(=O)NC(Nc2nc(C)c3cc(C)cc(C)c3n2)N1 (stereo not given)", -9.7],
  ["CC(=O)NC(C)C(=O)OCc1ccc(Cl)cc1Cl (stereo not given)", -3.7],
  ["O=C(CCn1c(=O)sc2ccccc21)NCc1ccc2c(c1)OCO2", 15.6],
  ["Cc1cc(C)n(CC(=O)NC2CCCCC2)n1", -4.9],
  ["CC(=O)Nc1ccc(NC(=O)c2cc(C)nn2-c2ccccc2)cc1", -15.3],
  ["Cc1cccc(NC(=O)c2ccc(S(=O)(=O)N(C)C)cc2)n1", 4.5],
  ["Cc1cc(N2C(=O)CC(N3CCN(c4ccc(C(=O)c5cccs5)cc4)CC3)C2=O)no1 (stereo not given)", -3],
  ["O=C(NCCC1=CCCCC1)C1CCN(S(=O)(=O)c2cnc[nH]2)CC1", -8.6],
  ["Cc1cc(C)n2c(SCC(=O)Nc3cc(C)on3)nnc2n1", 2.1],
  ["COc1cccc(CNC(=O)C2CCN(c3cnccn3)CC2)c1", 17.9],
  ["Cc1ccc(S(=O)(=O)N2CCCC2C(=O)n2nc(C)cc2C)cc1 (stereo not given)", 15.8],
  ["CCC(=O)c1cc(F)c(N2CCN(C(=O)c3ccco3)CC2)cc1C", -12.2],
  ["CCCNC(=O)c1cc(-c2ccco2)on1", -4.1],
  ["COc1ccccc1NC(=O)C1(C)Cc2ccccc2C(=O)O1 (stereo not given)", -26.4],
  ["O=C(O)CC(C(=O)Nc1cccc(C(F)(F)F)c1)C1CCCO1 (stereo not given)", 9.8],
  ["COC(=O)C(C)Sc1nc2c(c(=O)n(C)c(=O)n2C)n1Cc1cccc(C)c1 (stereo not given)", -2.4],
  ["O=C(Nc1ccccc1)c1cccnc1N1CCOCC1", -5.4],
  ["COc1ccc(Br)cc1S(=O)(=O)N1CCOCC1", -25.8],
  ["COc1ccc(CCNc2oc(Cc3cccc4ccccc34)nc2C#N)cc1OC", 8.4]
]}
